molecular target: HIV-1 Env of strain TRO.11 (HIV-1)

{"columns": ["binder", "In vitro neutralization IC50, µg/mL"],
 "data": [
  ["3BNC55 IgG (wild type) (antibody, V domains shown) VH: QVQLVQSGTAVKRPGASVRVSCQASGYTFTDYFIYWWRQAPGQGLEWLGWINPLTSQPSYPSRFQGRLTLTRDTFDEMLYMDLRGLRSDDTGIYFCARRHSDYCDFDIWGSGTQIIVSS VL: DIQMTQSPSSLSASVGDKVTITCQTSAGYLNWYQQRRGRAPKLLMYDGSRLVTGVPSRFSGRRWGTQYNLTIGSLQPEDIATYYCQVYEFFGPGTRLDLKS", 7.6],
  ["12A12 IgG (wild type) (antibody, V domains shown) VH: SQHLVQSGTQVKKPGASVRISCQASGYSFTDYVLHWWRQAPGQGLEWMGWIKPVYGARNYARRFQGRINFDRDIYREIAFMDLSGLRSDDTALYFCARDGSGDDTSWHLDPWGQGTLVIVSA VL: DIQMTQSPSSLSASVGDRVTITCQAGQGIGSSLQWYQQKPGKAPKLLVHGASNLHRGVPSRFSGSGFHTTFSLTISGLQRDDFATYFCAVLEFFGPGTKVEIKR", 0.3],
  ["3BNC60 IgG (wild type) (antibody) heavy: QVHLSQSGAAVTKPGASVRVSCEASGYKISDHFIHWWRQAPGQGLQWVGWINPKTGQPNNPRQFQGRVSLTRQASWDFDTYSFYMDLKAVRSDDTAIYFCARQRSDFWDFDVWGSGTQVTVSS light: DIQMTQSPSSLSARVGDTVTITCQANGYLNWYQQRRGKAPKLLIYDGSKLERGVPARFSGRRWGQEYNLTINNLQPEDVATYFCQVYEFIVPGTRLDLKRTVA", 0.07],
  ["3BNC117 IgG (wild type) (antibody) heavy: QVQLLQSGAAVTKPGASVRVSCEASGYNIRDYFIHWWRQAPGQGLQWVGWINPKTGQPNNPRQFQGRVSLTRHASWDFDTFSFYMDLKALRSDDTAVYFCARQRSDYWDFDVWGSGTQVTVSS light: DIQMTQSPSSLSASVGDTVTITCQANGYLNWYQQRRGKAPKLLIYDGSKLERGVPSRFSGRRWGQEYNLTINNLQPEDIATYFCQVYEFVVPGTRLDLKRTVA", 0.6]
]}
